Target: T1, recombinant human GPC1 protein (R&D Systems) (human, UniProt P35052 24-530)
T1 construct: Bought recombinant protein (R&D Systems); also called human GPC-1 antigen; Glypican-1
T1 sequence: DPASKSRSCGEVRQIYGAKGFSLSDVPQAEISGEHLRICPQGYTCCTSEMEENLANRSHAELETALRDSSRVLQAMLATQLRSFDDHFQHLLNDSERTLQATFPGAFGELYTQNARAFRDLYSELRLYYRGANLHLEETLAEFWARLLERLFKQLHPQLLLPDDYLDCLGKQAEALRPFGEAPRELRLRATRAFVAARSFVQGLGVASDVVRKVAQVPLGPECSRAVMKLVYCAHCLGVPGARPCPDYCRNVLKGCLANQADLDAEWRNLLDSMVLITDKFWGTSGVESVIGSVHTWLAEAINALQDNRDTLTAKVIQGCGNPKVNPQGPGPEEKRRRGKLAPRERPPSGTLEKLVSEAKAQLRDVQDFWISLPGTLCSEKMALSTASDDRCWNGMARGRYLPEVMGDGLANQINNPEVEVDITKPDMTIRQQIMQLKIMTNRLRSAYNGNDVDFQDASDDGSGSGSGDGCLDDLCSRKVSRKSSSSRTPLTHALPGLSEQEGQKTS
Assay: SPR (Biacore 8K); antibody captured by anti-human IgG (Fc) on a CM5 chip, recombinant human GPC1 flowed over
property-name: koff (s⁻¹)
Hi! Could you send only the number? It should be in s⁻¹, unit omitted.

May I ask what koff has been recorded for humanized anti-GPC1 monoclonal antibody clone T59 (antibody, human IgG4 S228P, kappa, V domains shown, IgG) VH: QVQLVQSGAEVKKPGASVKVSCKASGYTFTGYYMHWVRQAPGQGLEWMGEINPSTGDTTYNQKFKARVTMTRDTSTSTVYMELSSLRSEDTAVYYCAREKRDDGVFAYWGQGTLVTVSS VL: EIVMTQSPSSLSASVGDRVTITCQASQHISNKLNWYQQKPGKAPKLLIYDASNLETGVPSRFSGSGYGTDFTFTVSSLQPEDIATYYCQQYDNLPITFGQGTRLEIKR ?
0.0593

Data request, read-out koff, for humanized anti-GPC1 monoclonal antibody clone T34 (antibody, human IgG4 S228P, kappa, V domains shown, IgG) VH: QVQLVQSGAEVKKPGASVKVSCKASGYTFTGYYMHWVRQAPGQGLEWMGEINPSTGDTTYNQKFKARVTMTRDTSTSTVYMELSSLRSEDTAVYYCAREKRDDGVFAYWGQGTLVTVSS VL: VIWMTQSPSSVSASVGDRVTITCRASQAINGWLAWYQQKPGKAPRILIYSASTLQTGAPSRFSGSGFGTDFTLTISSVQPEDFATYYCQQAKSYPLTFGGGTKVEIKR
0.00393

Requested field: koff. Item: humanized anti-GPC1 monoclonal antibody clone T8 (antibody, human IgG4 S228P, kappa, V domains shown, IgG) VH: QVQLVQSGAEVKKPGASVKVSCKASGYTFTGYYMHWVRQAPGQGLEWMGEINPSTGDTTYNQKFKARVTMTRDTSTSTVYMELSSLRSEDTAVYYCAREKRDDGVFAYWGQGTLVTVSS VL: EIVMTQSPSSVSASVGDRVTITCRTSQSISSYLNWYQLRPGRAPKLLIYAASNLQSGVPSRFSGSGFGTDFTLTISSVQPEDFATYYCQQAKSYPLTFGGGTKVDIKR
0.00118
